Data provenance: ChEMBL document CHEMBL4308847

Target or system Cytochrome P450 1A2 (Homo sapiens); recorded quantity IC50.

Worked examples, 2 molecules total:
Cc1noc2c(F)cc(Nc3n[nH]c4cccnc34)cc12
< 0.1 µM
O=C(c1nsc2cc(Nc3n[nH]c4cccnc34)ccc12)N1CCC(F)(F)CC1
> 30 µM

*Q* Determine reported IC50 for FC1(F)CCN(Cc2nsc3cc(Nc4n[nH]c5cccnc45)cnc23)CC1 ; test system: Cytochrome P450 1A2 (Homo sapiens).
Sequence (P05177 whole entry): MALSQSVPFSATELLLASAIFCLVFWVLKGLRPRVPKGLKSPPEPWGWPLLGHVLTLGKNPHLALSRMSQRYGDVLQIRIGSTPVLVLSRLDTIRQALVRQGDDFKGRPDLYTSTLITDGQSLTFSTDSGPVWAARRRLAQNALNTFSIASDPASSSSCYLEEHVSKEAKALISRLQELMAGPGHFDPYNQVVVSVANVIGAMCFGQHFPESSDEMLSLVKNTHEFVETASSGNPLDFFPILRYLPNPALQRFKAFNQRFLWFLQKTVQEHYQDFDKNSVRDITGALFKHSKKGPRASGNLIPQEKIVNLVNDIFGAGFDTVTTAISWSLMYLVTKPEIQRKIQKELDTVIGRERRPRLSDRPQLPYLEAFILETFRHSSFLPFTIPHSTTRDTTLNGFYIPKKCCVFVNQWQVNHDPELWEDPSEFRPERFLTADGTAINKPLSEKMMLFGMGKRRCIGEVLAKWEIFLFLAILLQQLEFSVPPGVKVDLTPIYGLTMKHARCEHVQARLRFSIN
*A* > 30 µM

###

Test: Fraction unbound in human plasma after 4 hrs by equilibrium dialysis method
Assay type: ADME, cell-free
metric: fraction unbound at 4 h

Worked examples, 3 compounds total:
CC1CN(C(=O)c2nsc3cc(Nc4n[nH]c5cccnc45)ccc23)CC(C)O1 (stereo unspecified)
0.013
Cc1noc2c(F)cc(Nc3n[nH]c4cccnc34)cc12
0.029
Cc1noc2ccc(Nc3n[nH]c4nccnc34)cc12
0.066

[a] CCc1nsc2cc(Nc3n[nH]c4cccnc34)ccc12
[b] O=C(c1nsc2cc(Nc3n[nH]c4cccnc34)ccc12)N1CCOCC1
[c] CC(C)(C)Cc1noc2cc(Nc3n[nH]c4nccnc34)ccc12
[d] c1cnc2c(Nc3ccc4c(C5CCCC5)noc4c3)n[nH]c2n1
*Q* List by increasing fraction unbound at 4 h. Provide the labels, sequenced as the question asks.
*A* d, c, a, b

[A] Cc1noc2ccc(Nc3n[nH]c4cc(F)cnc34)cc12
[B] O=C(NC1CC(F)(F)C1)c1nsc2cc(Nc3n[nH]c4nccnc34)ccc12
[C] CCc1noc2cc(Nc3n[nH]c4cccnc34)ccc12
*Q* List by increasing fraction unbound at 4 h. Provide the labels, sequenced as the question asks.
*A* B, C, A

[A] CC(F)(F)c1noc2cc(Nc3n[nH]c4cccnc34)ccc12
[B] CN(C(=O)c1nsc2cc(Nc3n[nH]c4cccnc34)ccc12)C1CC(F)(F)C1
[C] Cc1noc2ccc(Nc3n[nH]c4ncccc34)cc12
[D] c1cnc2c(Nc3ccc4c(C5CCCC5)noc4c3)n[nH]c2c1
*Q* List by increasing fraction unbound at 4 h. Provide the labels, sequenced as the question asks.
*A* A, B, D, C
(A: 0.003, B: 0.006, D: 0.01, C: 0.066)

[P] CC(C)(C)Cc1nsc2cc(Nc3n[nH]c4nccnc34)cnc12
[Q] Cc1noc2ccc(Nc3n[nH]c4cccnc34)cc12
*Q* Between item P and item Q , which reported fraction unbound at 4 h is smaller? Identify your selection by its label.
*A* P
(P: 0.013, Q: 0.062)

###

Assay: Intrinsic clearance in rat liver microsomes at 1 uM preincubated for 5 mins followed by NADPH addition measured up to 45 mins by LC-MS/MS analysis
Type: ADME, Microsome
Details: read-out: CLH
metric: CLint scaled at 1 µM (mL/min/kg)

Worked examples, 6 molecules total:
c1cnc2c(Nc3ccc4c(C5CC5)nsc4c3)n[nH]c2n1
59.4
CN(C(=O)c1nsc2cc(Nc3n[nH]c4cccnc34)ccc12)C1CC(F)(F)C1
2940
Cc1noc2ccc(Nc3n[nH]c4ncc(F)cc34)cc12
39.3
CCc1noc2cc(Nc3n[nH]c4cccnc34)ccc12
204
O=C(NC1CC(F)(F)C1)c1nsc2cc(Nc3n[nH]c4nccnc34)ccc12
8.3
O=C(c1nsc2cc(Nc3n[nH]c4cccnc34)ccc12)N1CCOCC1
172

[P] O=C(c1nsc2cc(Nc3n[nH]c4cccnc34)ccc12)N1CCC(F)(F)CC1
[Q] CC(C)(C)Cc1noc2cc(Nc3n[nH]c4cccnc34)ccc12
*Q* API: POST /compare with P and Q ; response names the item with higher CLint scaled at 1 µM. Identify your selection by its label.
*A* P

[I] CCC(CC)c1noc2cc(Nc3n[nH]c4cccnc34)ccc12
[II] O=C(NC1CC(F)(F)C1)c1nsc2cc(Nc3n[nH]c4cccnc34)ccc12
*Q* Between item I and item II , which reported CLint scaled at 1 µM is smaller? Identify your selection by its label.
*A* II

[1] c1cnc2c(Nc3ccc4c(C5CC5)nsc4c3)n[nH]c2c1
[2] Cc1noc2ccc(Nc3n[nH]c4cccnc34)cc12
[3] CC(C)(C)Cc1nsc2cc(Nc3n[nH]c4cccnc34)cnc12
[4] Cc1noc2c(F)cc(Nc3n[nH]c4cccnc34)cc12
*Q* List by increasing CLint scaled at 1 µM. Provide the labels, sequenced as the question asks.
*A* 2, 4, 1, 3
(2: 31.8 mL/min/kg, 4: 66.4 mL/min/kg, 1: 176 mL/min/kg, 3: 277 mL/min/kg)

[1] CC(=O)N1CCC(c2nsc3cc(Nc4n[nH]c5cccnc45)ccc23)CC1
[2] Cc1noc2ccc(Nc3n[nH]c4cc(F)cnc34)cc12
[3] Cc1noc2c(F)cc(Nc3n[nH]c4ncccc34)cc12
*Q* List by increasing CLint scaled at 1 µM. Provide the labels, sequenced as the question asks.
*A* 1, 2, 3
(1: 21 mL/min/kg, 2: 33.4 mL/min/kg, 3: 110 mL/min/kg)
